Test system: RAW 264.7 macrophages
Test: Cytotoxicity on RAW 264.7 macrophages
Format: cell-based, Mouse
Conditions: Table I
MEASURED_METRIC: CC50 (µM)

1) C[C@@H]1[C@H](O)[C@@H](C)/C=C/C=C/C=C/C=C/C=C/C=C/C=C/[C@H](O[C@@H]2O[C@H](C)[C@@H](O)[C@H](N)[C@@H]2O)C[C@@H]2O[C@](O)(C[C@@H](O)C[C@@H](O)[C@H](O)CC[C@@H](O)C[C@@H](O)CC(=O)O[C@H]1C)C[C@H](O)[C@H]2C(=O)O [Amphotericin B, reference compound] = 4.5

====

Test system: Leishmania infantum axenic amastigotes
Experiment: Evaluation on Leishmania donovani infantum axenic amastigotes (SYBR Green I)
Format: cell-based
Conditions: Leishmania infantum; Table II; 3 different experiments, SYBR Green I method; read-out: IC50 axenic
pIC50: −log10 of the molar value.
MEASURED_METRIC: pIC50

1) COc1ccc(OC)c(CN[C@H]2C[C@H]3C[C@@H]([C@@H]2C)C3(C)C)c1 [VP369] = 4.81
2) C[C@@H]1[C@@H](NCc2ccc3c(c2)Cc2ccccc2-3)C[C@H]2C[C@@H]1C2(C)C [VP397] = 5.01
3) COc1cccc(OC)c1CN[C@H]1C[C@H]2C[C@@H]([C@@H]1C)C2(C)C [VP370] = 4.44
4) COc1ccccc1CN[C@H]1C[C@H]2C[C@@H]([C@@H]1C)C2(C)C [VP363] = 5.00
5) C[C@@H]1[C@@H](NCc2ncc[nH]2)C[C@H]2C[C@@H]1C2(C)C [VP358] = 4.89

====

System: L. infantum intramacrophagic amastigotes
Test: L. donovani infantum/RAW 264.7 macrophage model (intramacrophagic amastigotes, SYBR Green I)
Type: cell-based, Leishmania donovani infantum
Conditions: Leishmania infantum, Macrophage; Table II; 3 different experiments, SYBR Green I method; read-out: IC50 intramacrophagic
pIC50: −log10 of the molar value.
MEASURED_METRIC: pIC50

1) C[C@@H]1[C@@H](NCc2ccoc2)C[C@H]2C[C@@H]1C2(C)C = 6.38
2) C[C@@H]1[C@@H](NCc2ccc(I)cc2)C[C@H]2C[C@@H]1C2(C)C = 6.57
3) C[C@@H]1[C@@H](NCc2cccc(Br)c2)C[C@H]2C[C@@H]1C2(C)C = 6.41
4) C[C@@H]1[C@@H](NCc2ccc(-n3ccnc3)cc2)C[C@H]2C[C@@H]1C2(C)C = 6.54
5) COc1ccc(Br)cc1CN[C@@H]1C[C@H]2CC[C@]1(C)C2(C)C = 7.22
6) Cc1ccccc1CN[C@H]1C[C@H]2C[C@@H]([C@@H]1C)C2(C)C = 6.68
7) Cc1ccc(-c2ccc(CN[C@H]3C[C@H]4C[C@@H]([C@@H]3C)C4(C)C)cc2)cc1 = 6.68
8) C[C@@H]1[C@@H](NCc2ncc[nH]2)C[C@H]2C[C@@H]1C2(C)C = 6.24
9) COc1ccc(OC)c(CN[C@H]2C[C@H]3C[C@@H]([C@@H]2C)C3(C)C)c1 = 6.96
10) COc1ccc(Br)cc1CN(C)C12CC3CC(CC(C3)C1)C2 = 7.40

====

System: Leishmania infantum axenic amastigotes
Assay: Evaluation on Leishmania donovani infantum axenic amastigotes (SYBR Green I)
Assay type: cell-based
Conditions: Leishmania infantum; Table II; 3 different experiments, SYBR Green I method; read-out: IC50 axenic
MEASURED_METRIC: IC50 (µM)

1) COc1ccc(Br)cc1/C=N/C12CC3CC(CC(C3)C1)C2 [VP300A] = 4.53
2) Cc1ccccc1CN[C@H]1C[C@H]2C[C@@H]([C@@H]1C)C2(C)C [VP391] = 7.55
3) Cc1ccc(-c2ccc(CN[C@H]3C[C@H]4C[C@@H]([C@@H]3C)C4(C)C)cc2)cc1 [VP396] = 5.56
4) COc1ccc(Br)cc1CN(C)C12CC3CC(CC(C3)C1)C2 [VP343] = 9.29
